- target: T1, human TGF-beta 3 (RDI, Cat # RDI-1036/CF) (human, UniProt P10600 301-412)
- T1 construct: Bought recombinant protein; also called TGF-β3; TGF-p3
- T1 sequence (looked up): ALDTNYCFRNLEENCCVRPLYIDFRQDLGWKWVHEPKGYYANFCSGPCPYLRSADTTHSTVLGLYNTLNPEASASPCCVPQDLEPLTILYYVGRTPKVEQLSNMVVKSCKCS
- test details: Biacore SPR, equilibrium fit, mAb captured on Protein A, TGF-β3 injected
Attribute: pKd
Worth noting: pKd values are minus log10 of concentrations stated in mol/L.

Example cases with answers are listed next.
>>> reported_result("mAb 21D1 (antibody, human IgG4 S228P, kappa, V domains shown, Full-length IgG4 antibody; also called LA307-21D1) VH: QVQLVQSGAEVKKPGASVKVSCKASGYTFTDYNIHWVRQAPGQGLEWMGYIYPYDGETGYNQKFKSRVTMTTDTSTSTAYMELRSLRSDDTAVYYCARGYRWFAYWGQGTLVTVSS VL: DIQMTQSPSSLSASVGDRVTITCRASSSVPYMHWFQQKPGKAPKSLIYATSNPAYGVPSRFSGSGSGTDFTLTISSLQPEDFATYYCQQWDLNPPAFGQGTKLEIKR")
8.31
>>> reported_result("mAb 23A3 (antibody, IgG4, V domains shown) VH: QVQLVQSGAEVKKPGASVKVSCKASGYDFTDYNMVWVRQAPGQGLEWMGSIYPYDGETGYNQKFKSRVTMTTDTSTSTAYMELRSLRSDDTAVYYCARGYRAFEYWGQGTLVTVSS VL: DIQMTQSPSSLSASVGDRVTITCRASSSVPYMHWYQQKPGKAPKLLIYATSNPAYGVPSRFSGSGSGTDFTLTISSLQPEDFATYYCQQWDLNPPAFGQGTKLEIK")
9.18
>>> reported_result("mAb DM4 (antibody, human IgG4 S228P, kappa, V domains shown, Full-length IgG4 antibody; also called LA307-DM4) VH: QVQLVQSGAEVKKPGASVKVSCKASGYDFTDYNIHWVRQAPGQGLEWMGYIYPYDGETGYNQKFKSRVTMTTDTSTSTAYMELRSLRSDDTAVYYCARGYRWLAYWGQGTLVTVSS VL: DIQMTQSPSSLSASVGDRVTITCRASSSVSYMHWYQQKPGKAPKPLIYATSNLAYGVPSRFSGSGSGTDFTLTISSLQPEDFATYYCQQWDLNPPAFGQGTKLEIKR")
9.28

Now consider a different binder.
Input: // lookup pKd for mAb DM7 (antibody, IgG4, V domains shown) VH: QVQLVQSGAEVKKPGASVKVSCKASGYDFTDYNMHWVRQAPGQGLEWMGYIYPYDGETGYNQKFKSRVTMTTDTSTSTAYMELRSLRSDDTAVYYCARGYRWLYYWGQGTLVTVSS VL: DIQMTQSPSSLSASVGDRVTITCRASSSVSYMHWYQQKPGKAPKPLIYATSNLAKGVPSRFSGSGSGTDFTLTISSLQPEDFATYYCQQWDLNPPAFGQGTKLEIK
Output: 8.94
